From: patent US6346249

Consider the following binders; for each one, report its pKd.
Molecular target: T1, recombinant human A33 antigen (human, UniProt Q99795 22-233, limits assumed)
T1 construct: also called human antigen A33; immobilized recombinant human A33
T1 sequence (looked up): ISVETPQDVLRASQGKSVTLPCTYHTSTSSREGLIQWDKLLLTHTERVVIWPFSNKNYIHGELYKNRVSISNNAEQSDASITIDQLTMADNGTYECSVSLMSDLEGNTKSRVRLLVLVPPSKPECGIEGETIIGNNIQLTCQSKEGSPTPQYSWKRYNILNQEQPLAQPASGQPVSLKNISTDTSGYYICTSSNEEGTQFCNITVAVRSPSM
Test: SPR (Biacore), recombinant human A33 immobilized on CM5 chip; Kd calculated from koff/kon
Procedure: The binding strength was determined by surface plasmon resonance in accordance with Rader, et al., Proc. Natl. Acad. Sci USA 95(15): 8910–8915 (1998), incorporated by reference. […] The $kon$ and $koff$ values were calculated using Biacore AB evaluation software. The equilibrium dissociation constant K_d was calculated from $koff/kon$. Association ($kon$) and dissociation ($koff$) rate constant were determined using surface plasmon resonance. […]
Give bare numbers, as −log10 of the molar value.

Worked set:
binder	pKd
humanized Fab D (human VLD and human VHD) (Fab, V domains shown) VH: EVQVMESGGGLVKPGGSLRLSCAASGIDFSHYGISWVRQAPGKGLEWVSYIYPNYGSVDYASSVNGRFTISLDNAQNSLYLQMNSLRAEDTAVYFCARDRGYYSGSRGTRLDLWGQGTLVTVSS VL: ELQMTQSPSSLSASVGDRVTITCLASEFLFNGVSWYQQKPGKVPKFLIYGASNLESGVPSRFSGSGSGTDYTLTISSLQPEDVATYYCLGGYSGSSGLTFGGGTKVEIK	7.53
humanized Fab E (human VLE and human VHE) (Fab, V domains shown) VH: EVQVMESGGGLVKPGGSLRLSCAASGFTFSHYGISWVRQAPGKGLEWVSYIYPNYGSVDYASSVNGRFTISFDNAQNSVYLQMNSLRAEDTAVYYCARDRGYYSGSRGTRLDLWGQGTLVTVSS VL: ELQMTQSPSSLSASVGDRVTITCLASEFLFNGVSWYQQKPGKAPKLLIYGASNLESGVPSRFSGSGSGTDYTLTISSLQPEDVATYYCLGGYSGSSGLTFGGGTKVEIK	8.11

// below: pKd requested for another binder
In: Tell me pKd reported for humanized Fab C (human VLC and human VHC) (Fab, V domains shown) VH: EVQVMESGGGLVKPGGSLRLSCAASGIDFSHYGISWVRQAPGKGLEWVSYIYPNYGSVDYASSVNGRFTISLDNAQNSLYLQMNSLRAEDTAVYYCARDRGYYSGSRGTRLDLWGQGTLVTVSS VL: ELQMTQSPSSLSASVGDRVTITCLASEFLFNGVSWYQQKPGKAPKFLIYGASNLESGVPSRFSGSGSGTDFTLTISSLQPEDVATYYCLGGYSGSSGLTFGGGTKVEIK
Out: 7.74
